# TESTED SYSTEM: Mast/stem cell growth factor receptor Kit (Homo sapiens)
# Sequence (P10721 whole entry): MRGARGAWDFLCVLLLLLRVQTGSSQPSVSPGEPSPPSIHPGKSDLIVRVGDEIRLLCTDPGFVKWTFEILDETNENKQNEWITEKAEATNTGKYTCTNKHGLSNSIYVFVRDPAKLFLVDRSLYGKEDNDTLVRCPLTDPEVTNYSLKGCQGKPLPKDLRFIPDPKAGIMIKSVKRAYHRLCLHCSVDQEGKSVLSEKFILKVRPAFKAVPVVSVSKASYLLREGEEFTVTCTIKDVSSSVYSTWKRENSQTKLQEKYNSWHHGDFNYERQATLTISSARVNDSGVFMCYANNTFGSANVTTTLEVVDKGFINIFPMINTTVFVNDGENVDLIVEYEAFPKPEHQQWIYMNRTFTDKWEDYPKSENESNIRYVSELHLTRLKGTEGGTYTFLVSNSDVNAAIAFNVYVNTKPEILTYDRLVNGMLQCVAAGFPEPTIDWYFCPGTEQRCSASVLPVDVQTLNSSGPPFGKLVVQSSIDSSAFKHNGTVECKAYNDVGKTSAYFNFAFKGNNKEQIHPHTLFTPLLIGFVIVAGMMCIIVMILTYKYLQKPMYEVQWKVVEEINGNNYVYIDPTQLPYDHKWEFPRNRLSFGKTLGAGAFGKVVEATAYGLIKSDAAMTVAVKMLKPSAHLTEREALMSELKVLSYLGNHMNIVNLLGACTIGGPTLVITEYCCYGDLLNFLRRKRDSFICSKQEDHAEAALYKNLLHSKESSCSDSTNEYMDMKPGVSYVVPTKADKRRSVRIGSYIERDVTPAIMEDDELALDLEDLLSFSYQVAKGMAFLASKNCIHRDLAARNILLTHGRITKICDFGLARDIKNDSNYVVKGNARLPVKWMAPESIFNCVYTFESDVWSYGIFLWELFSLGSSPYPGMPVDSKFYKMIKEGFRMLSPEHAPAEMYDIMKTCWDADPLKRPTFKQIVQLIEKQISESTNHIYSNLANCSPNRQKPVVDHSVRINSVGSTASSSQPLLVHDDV
# ASSAY DETAILS: Magnesium chloride (MgCl2), Manganese(II) chloride (MnCl2), Bovine serum albumin (BSA) and dimethylsulfoxide (DMSO) were purchased from Sigma-Aldrich.
pIC50: −log10 of the molar value.
ENDPOINT: pIC50

The value of pIC50 measured for the compound `Cc1ccc2c(c1-c1ccc3nc(NC(=O)[C@@H]4C[C@@H]4F)sc3c1)CCN2` turned out to be < 5.00
